target: 5-hydroxytryptamine receptor 2B (Homo sapiens); assay: Antagonist activity at recombinant human 5-HT2B assessed as inhibition of agonist-induced effect at 10 uM by aequorin reporter based assay; assay type: functional
measurement-label: inhibition (%)

Known inhibition results, listed for orientation:
CN(CCNC(=O)c1ccc([N+](=O)[O-])cc1)Cc1ccccc1 35
CN(CCCNC(=O)c1ccc(Cl)cc1)Cc1ccccc1 58
CN(CCCNC(=O)c1cccc(Br)c1)Cc1ccccc1 78
CN(CCCNC(=O)c1ccc([N+](=O)[O-])cc1)Cc1ccccc1 26
COc1ccc(C(=O)NCCCN(C)Cc2ccccc2)cc1 16
CN(CCNC(=O)c1ccc(C#N)cc1)Cc1ccccc1 16
CN(CCCNC(=O)c1ccc(C(F)(F)F)cc1)Cc1ccccc1 66
CN(CCNC(=O)c1ccc(Cl)cc1)Cc1ccccc1 66

A: CCCc1ccc(C(=O)NCCCN(C)Cc2ccccc2)cc1
B: CN(CCCNC(=O)c1ccc(Br)cc1)Cc1ccccc1
stdin: Hi team, can someone confirm which has the larger inhibition: A or B ? Thanks. Pick one; state its label.
stdout: A
(A: 75%, B: 37%)

I: COc1cccc(C(=O)NCCCN(C)Cc2ccccc2)c1
II: CN(CCCNC(=O)c1ccc(Cl)cc1)CCc1ccccc1
stdin: Hi team, can someone confirm which has the larger inhibition: I or II ? Thanks. Pick one; state its label.
stdout: II

---

biological target: UniProt P25021; test: Antagonist activity at recombinant human histamine H2 receptor assessed as inhibition of agonist-induced cAMP levels at 10 uM by HTRF assay; type: functional
Sequence (P25021 whole entry): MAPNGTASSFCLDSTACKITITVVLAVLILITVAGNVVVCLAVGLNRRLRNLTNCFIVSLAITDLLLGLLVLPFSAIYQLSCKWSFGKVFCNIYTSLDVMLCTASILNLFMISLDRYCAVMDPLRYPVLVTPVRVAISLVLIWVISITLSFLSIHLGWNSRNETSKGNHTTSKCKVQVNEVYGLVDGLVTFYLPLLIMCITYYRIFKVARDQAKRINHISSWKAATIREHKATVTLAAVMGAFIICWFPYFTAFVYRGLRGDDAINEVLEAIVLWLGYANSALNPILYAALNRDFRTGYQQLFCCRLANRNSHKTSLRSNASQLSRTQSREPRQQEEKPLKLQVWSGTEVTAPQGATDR
measurement-label: inhibition (%)

Known inhibition results, listed for orientation:
CN(CCCNC(=O)c1ccc(C(F)(F)F)cc1)Cc1ccccc1 6
CN(CCCNC(=O)c1cccc(Br)c1)Cc1ccccc1 9
CN(CCNC(=O)c1ccc([N+](=O)[O-])cc1)Cc1ccccc1 21
COc1cccc(C(=O)NCCCN(C)Cc2ccccc2)c1 16
COc1ccc(C(=O)NCCCN(C)Cc2ccccc2)cc1 15

I: CCCc1ccc(C(=O)NCCCN(C)Cc2ccccc2)cc1
II: CN(CCCNC(=O)c1ccc([N+](=O)[O-])cc1)Cc1ccccc1
III: CN(CCCNC(=O)c1ccc(Cl)cc1)CCc1ccccc1
IV: CN(CCNC(=O)c1ccc(Cl)cc1)Cc1ccccc1
V: CN(CCNC(=O)c1ccc(C#N)cc1)Cc1ccccc1
stdin: Order each entry by recorded inhibition, climbing from the minimum. List the labels in the requested order.
stdout: II, III, I, IV, V

---

molecular target: Muscarinic acetylcholine receptor M1 (Homo sapiens) (UniProt P11229); experiment: Agonist activity at recombinant human muscarinic M1 receptor at 10 uM by aequorin reporter based assay relative to agonist; format: functional
Sequence (P11229 whole entry): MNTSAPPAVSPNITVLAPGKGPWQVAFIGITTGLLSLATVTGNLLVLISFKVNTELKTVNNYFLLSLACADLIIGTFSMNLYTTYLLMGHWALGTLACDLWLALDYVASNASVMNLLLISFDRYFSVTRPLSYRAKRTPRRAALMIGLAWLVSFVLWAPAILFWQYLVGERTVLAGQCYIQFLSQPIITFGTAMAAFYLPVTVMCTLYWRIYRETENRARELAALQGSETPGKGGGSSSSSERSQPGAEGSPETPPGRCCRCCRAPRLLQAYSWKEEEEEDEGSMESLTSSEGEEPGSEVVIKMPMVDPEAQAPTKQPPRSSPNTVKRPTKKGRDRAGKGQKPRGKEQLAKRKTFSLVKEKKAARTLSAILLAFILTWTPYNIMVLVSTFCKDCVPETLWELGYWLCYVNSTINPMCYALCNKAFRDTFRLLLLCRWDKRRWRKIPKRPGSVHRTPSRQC
measurement-label: Activity (%)

Known Activity results, listed for orientation:
CN(CCCNC(=O)c1ccc(Cl)cc1)Cc1ccccc1 0
COc1cccc(C(=O)NCCCN(C)Cc2ccccc2)c1 0

1: CN(CCCNC(=O)c1ccc(C(F)(F)F)cc1)Cc1ccccc1
2: CN(CCCNC(=O)c1ccc(Br)cc1)Cc1ccccc1
stdin: Lower value for measured Activity? Options: 1 , 2 Pick one; state its label.
stdout: 1

---

molecular target: Vasopressin V1a receptor (Homo sapiens) (UniProt P37288); assay: Antagonist activity at recombinant human V1A receptor assessed as inhibition of agonist-induced effect at 10 uM by aequorin reporter based assay; assay type: functional
Sequence (P37288 whole entry, looked up): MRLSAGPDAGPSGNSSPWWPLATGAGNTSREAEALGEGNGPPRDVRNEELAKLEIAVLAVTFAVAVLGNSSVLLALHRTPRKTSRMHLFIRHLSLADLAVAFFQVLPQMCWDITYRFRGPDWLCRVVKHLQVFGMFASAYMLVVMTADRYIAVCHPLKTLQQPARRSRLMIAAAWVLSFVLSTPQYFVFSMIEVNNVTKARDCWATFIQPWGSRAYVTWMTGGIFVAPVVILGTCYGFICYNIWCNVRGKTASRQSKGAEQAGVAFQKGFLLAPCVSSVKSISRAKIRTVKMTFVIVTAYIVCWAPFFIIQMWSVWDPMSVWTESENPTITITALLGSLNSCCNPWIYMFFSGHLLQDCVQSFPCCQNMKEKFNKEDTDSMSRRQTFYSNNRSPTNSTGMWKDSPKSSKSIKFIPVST
measurement-label: inhibition (%)

CN(CCCNC(=O)c1cccc(Br)c1)Cc1ccccc1 14

P: COc1ccc(C(=O)NCCCN(C)Cc2ccccc2)cc1
Q: CCCc1ccc(C(=O)NCCCN(C)Cc2ccccc2)cc1
R: CN(CCNC(=O)c1ccc(Cl)cc1)Cc1ccccc1
S: CN(CCCNC(=O)c1ccc(Cl)cc1)CCc1ccccc1
stdin: Arrange these molecules by their inhibition, starting with the largest number. List the labels in the requested order.
stdout: S, R, Q, P

---

target: Kappa-type opioid receptor (Homo sapiens) (UniProt P41145); test: Agonist activity at recombinant human kappa-type opioid receptor at 10 uM by GTPgamma[35S] binding-based assay relative to agonist; assay type: functional
Sequence (P41145 whole entry): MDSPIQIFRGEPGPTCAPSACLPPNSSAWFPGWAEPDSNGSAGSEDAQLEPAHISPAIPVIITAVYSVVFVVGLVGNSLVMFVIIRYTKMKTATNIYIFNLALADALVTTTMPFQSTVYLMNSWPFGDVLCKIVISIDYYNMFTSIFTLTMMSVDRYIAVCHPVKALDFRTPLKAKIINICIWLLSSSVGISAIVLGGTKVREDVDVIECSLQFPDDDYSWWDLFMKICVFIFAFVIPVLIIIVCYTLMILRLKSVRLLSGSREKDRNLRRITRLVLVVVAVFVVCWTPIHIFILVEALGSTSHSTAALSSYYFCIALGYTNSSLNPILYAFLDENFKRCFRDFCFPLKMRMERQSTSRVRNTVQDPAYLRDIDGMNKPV
measurement-label: Activity (%)

CN(CCCNC(=O)c1ccc(Br)cc1)Cc1ccccc1 3
CN(CCCNC(=O)c1cccc(Br)c1)Cc1ccccc1 6
CCCc1ccc(C(=O)NCCCN(C)Cc2ccccc2)cc1 -2

a: COc1ccc(C(=O)NCCCN(C)Cc2ccccc2)cc1
b: CN(CCCNC(=O)c1ccc(Cl)cc1)Cc1ccccc1
stdin: Lower value for measured Activity? Options: a , b Pick one; state its label.
stdout: b

---

target: 5-hydroxytryptamine receptor 2C (Homo sapiens) (UniProt P28335); assay: Antagonist activity at recombinant human 5-HT2C assessed as inhibition of agonist-induced effect at 10 uM by aequorin reporter based assay; type: functional
Sequence (P28335 whole entry): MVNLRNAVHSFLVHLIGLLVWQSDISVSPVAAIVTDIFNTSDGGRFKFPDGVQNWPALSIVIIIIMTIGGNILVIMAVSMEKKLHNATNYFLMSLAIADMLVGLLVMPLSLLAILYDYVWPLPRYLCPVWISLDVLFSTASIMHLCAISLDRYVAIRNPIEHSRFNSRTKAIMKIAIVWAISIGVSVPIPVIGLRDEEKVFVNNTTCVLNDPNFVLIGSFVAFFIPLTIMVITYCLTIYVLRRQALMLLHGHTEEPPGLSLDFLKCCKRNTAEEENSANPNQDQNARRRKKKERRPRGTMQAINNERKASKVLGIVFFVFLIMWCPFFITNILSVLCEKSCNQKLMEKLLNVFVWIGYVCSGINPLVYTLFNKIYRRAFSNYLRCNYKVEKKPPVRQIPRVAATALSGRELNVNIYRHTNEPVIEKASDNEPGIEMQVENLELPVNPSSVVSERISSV
measurement-label: inhibition (%)

CN(CCCNC(=O)c1ccc(Br)cc1)Cc1ccccc1 34
CN(CCCNC(=O)c1ccc([N+](=O)[O-])cc1)Cc1ccccc1 11
CN(CCCNC(=O)c1ccc(C(F)(F)F)cc1)Cc1ccccc1 24
CN(CCCNC(=O)c1cccc(Br)c1)Cc1ccccc1 54
CN(CCCNC(=O)c1ccc(Cl)cc1)Cc1ccccc1 43
CCCc1ccc(C(=O)NCCCN(C)Cc2ccccc2)cc1 94

P: COc1ccc(C(=O)NCCCN(C)Cc2ccccc2)cc1
Q: CN(CCCNC(=O)c1ccc(Cl)cc1)CCc1ccccc1
stdin: Lower value for measured inhibition? Options: P , Q Pick one; state its label.
stdout: P

A: CN(CCNC(=O)c1ccc([N+](=O)[O-])cc1)Cc1ccccc1
B: COc1cccc(C(=O)NCCCN(C)Cc2ccccc2)c1
stdin: Hi team, can someone confirm which has the larger inhibition: A or B ? Thanks. Pick one; state its label.
stdout: A
(A: 80%, B: 36%)

I: CN(CCNC(=O)c1ccc(Cl)cc1)Cc1ccccc1
II: CN(CCNC(=O)c1ccc(C#N)cc1)Cc1ccccc1
stdin: Hi team, can someone confirm which has the larger inhibition: I or II ? Thanks. Pick one; state its label.
stdout: I
(I: 92%, II: 34%)

---

target: Muscarinic acetylcholine receptor M2 (Homo sapiens) (UniProt P08172); test: Antagonist activity at human muscarinic M2 receptor assessed as inhibition of agonist-induced effect at 10 uM by GTPgamma[35S] binding-based assay; assay type: functional
Sequence (P08172 whole entry): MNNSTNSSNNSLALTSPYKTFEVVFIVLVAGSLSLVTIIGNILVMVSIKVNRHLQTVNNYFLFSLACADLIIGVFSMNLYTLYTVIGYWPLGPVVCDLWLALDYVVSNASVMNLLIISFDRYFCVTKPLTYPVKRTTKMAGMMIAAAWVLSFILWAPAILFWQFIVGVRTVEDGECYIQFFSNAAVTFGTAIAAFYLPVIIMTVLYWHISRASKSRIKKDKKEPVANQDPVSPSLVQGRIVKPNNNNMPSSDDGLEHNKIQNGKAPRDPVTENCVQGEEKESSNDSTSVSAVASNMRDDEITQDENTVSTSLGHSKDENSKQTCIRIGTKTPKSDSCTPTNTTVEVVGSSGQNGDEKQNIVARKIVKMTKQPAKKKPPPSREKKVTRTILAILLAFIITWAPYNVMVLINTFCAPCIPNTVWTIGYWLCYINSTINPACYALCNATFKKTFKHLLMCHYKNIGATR
measurement-label: inhibition (%)

Known inhibition results, listed for orientation:
CN(CCCNC(=O)c1ccc(Cl)cc1)Cc1ccccc1 38
CN(CCCNC(=O)c1ccc(C(F)(F)F)cc1)Cc1ccccc1 20
CN(CCCNC(=O)c1cccc(Br)c1)Cc1ccccc1 30
CN(CCNC(=O)c1ccc(Cl)cc1)Cc1ccccc1 28
CN(CCNC(=O)c1ccc(C#N)cc1)Cc1ccccc1 26
CN(CCNC(=O)c1ccc([N+](=O)[O-])cc1)Cc1ccccc1 29
COc1ccc(C(=O)NCCCN(C)Cc2ccccc2)cc1 29
CN(CCCNC(=O)c1ccc(Br)cc1)Cc1ccccc1 28

a: CCCc1ccc(C(=O)NCCCN(C)Cc2ccccc2)cc1
b: CN(CCCNC(=O)c1ccc([N+](=O)[O-])cc1)Cc1ccccc1
c: CN(CCCNC(=O)c1ccc(Cl)cc1)CCc1ccccc1
stdin: Arrange these compounds by their inhibition, starting with the largest number. List the labels in the requested order.
stdout: c, a, b
(c: 54%, a: 36%, b: 15%)

---

target: Delta-type opioid receptor (Homo sapiens) (UniProt P41143); assay: Agonist activity at recombinant human delta-type opioid receptor at 10 uM by GTPgamma[35S] binding-based assay relative to agonist; assay type: functional
Sequence (P41143 whole entry): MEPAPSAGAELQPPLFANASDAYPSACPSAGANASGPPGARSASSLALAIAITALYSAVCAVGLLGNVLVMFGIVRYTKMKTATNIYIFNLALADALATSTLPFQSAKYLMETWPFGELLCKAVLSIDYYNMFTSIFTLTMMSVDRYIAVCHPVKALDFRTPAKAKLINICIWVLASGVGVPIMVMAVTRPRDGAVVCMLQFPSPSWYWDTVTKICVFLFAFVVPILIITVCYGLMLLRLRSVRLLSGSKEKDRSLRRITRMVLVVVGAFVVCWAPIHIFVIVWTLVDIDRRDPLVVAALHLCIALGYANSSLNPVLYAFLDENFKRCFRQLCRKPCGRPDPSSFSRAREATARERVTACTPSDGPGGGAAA
measurement-label: Activity (%)

Known Activity results, listed for orientation:
CN(CCCNC(=O)c1ccc(Br)cc1)Cc1ccccc1 1
CN(CCCNC(=O)c1cccc(Br)c1)Cc1ccccc1 -1
CN(CCCNC(=O)c1ccc([N+](=O)[O-])cc1)Cc1ccccc1 -1

P: CN(CCNC(=O)c1ccc(C#N)cc1)Cc1ccccc1
Q: COc1cccc(C(=O)NCCCN(C)Cc2ccccc2)c1
stdin: Hi team, can someone confirm which has the larger Activity: P or Q ? Thanks. Pick one; state its label.
stdout: P
(P: -2%, Q: -4%)

P: CN(CCCNC(=O)c1ccc(Cl)cc1)Cc1ccccc1
Q: CN(CCNC(=O)c1ccc(Cl)cc1)Cc1ccccc1
stdin: Lower value for measured Activity? Options: P , Q Pick one; state its label.
stdout: P

---

target: Cholecystokinin receptor type A (Homo sapiens); test: Agonist activity at recombinant human […] receptor at 10 uM by aequorin reporter based assay relative to agonist; format: functional
measurement-label: Activity (%)

Known Activity results, listed for orientation:
CN(CCNC(=O)c1ccc(C#N)cc1)Cc1ccccc1 -2
CN(CCCNC(=O)c1ccc(C(F)(F)F)cc1)Cc1ccccc1 -2
CN(CCCNC(=O)c1cccc(Br)c1)Cc1ccccc1 0
CN(CCNC(=O)c1ccc(Cl)cc1)Cc1ccccc1 -2

I: CN(CCCNC(=O)c1ccc(Cl)cc1)CCc1ccccc1
II: CN(CCCNC(=O)c1ccc([N+](=O)[O-])cc1)Cc1ccccc1
stdin: Hi team, can someone confirm which has the larger Activity: I or II ? Thanks. Pick one; state its label.
stdout: II
